# system-tested: Beta-1 adrenergic receptor (Homo sapiens); note: assay procedure not described here
# Sequence (P08588 whole entry): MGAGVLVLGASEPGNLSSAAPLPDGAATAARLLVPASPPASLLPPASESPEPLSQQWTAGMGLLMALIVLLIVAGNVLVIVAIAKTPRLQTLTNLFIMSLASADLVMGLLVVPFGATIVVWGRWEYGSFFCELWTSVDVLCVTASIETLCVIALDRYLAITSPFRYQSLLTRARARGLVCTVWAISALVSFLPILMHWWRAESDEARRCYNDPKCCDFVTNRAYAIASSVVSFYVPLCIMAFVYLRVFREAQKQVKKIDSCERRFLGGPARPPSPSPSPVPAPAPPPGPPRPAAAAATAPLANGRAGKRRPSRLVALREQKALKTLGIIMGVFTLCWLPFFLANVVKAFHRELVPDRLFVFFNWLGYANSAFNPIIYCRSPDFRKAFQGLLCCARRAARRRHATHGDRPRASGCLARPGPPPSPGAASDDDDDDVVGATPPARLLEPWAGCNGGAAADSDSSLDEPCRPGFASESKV
# Type: functional

compound	AC50
O=C1NC(=O)C(c2ccccc2)(c2ccccc2)N1	> 30 µM
COc1cccc(N(C)C(=S)Oc2ccc3c(c2)CCCC3)n1 [LIRANAFTATE]	> 30 µM
CCCCC[C@H](O)/C=C/[C@H]1[C@H](O)CC(=O)[C@@H]1C/C=C\CCCC(=O)O	> 30 µM
CC(=O)OCC[N+](C)(C)C	> 30 µM
CC[N+]1(C)CCCC(OC(=O)C(O)(c2ccccc2)c2ccccc2)C1 (stereo not given) [PIPENZOLATE]	> 30 µM
CC(=O)OCC(=O)[C@@]1(O)CC[C@H]2[C@@H]3CCC4=CC(=O)CC[C@]4(C)C3=CC[C@@]21C [ANECORTAVE ACETATE]	> 10 µM
NC(=O)c1ncn([C@@H]2O[C@H](CO)[C@@H](O)[C@H]2O)n1	> 10 µM
N#Cc1ccccc1-c1cc(-c2ccccn2)cn(-c2ccccc2)c1=O	> 30 µM
OCCN1CCN(CC/C=C2/c3ccccc3Sc3ccc(Cl)cc32)CC1	> 10 µM
CN1[C@@H]2CC[C@H]1C[C@@H](OC(=O)c1c[nH]c3ccccc13)C2	> 30 µM
COc1ccc(C(CN(C)C)C2(O)CCCCC2)cc1 (stereo not given)	> 10 µM
CCC(C)(Oc1ccc(C2(c3ccc(OC(C)(CC)C(=O)O)cc3)CCCCC2)cc1)C(=O)O (stereo not given) [CLINOFIBRATE]	> 30 µM
N#C[C@@H]1CCCN1C(=O)CNC12CC3CC(CC(O)(C3)C1)C2	> 10 µM
CC[C@H]1OC(=O)[C@H](C)[C@@H](O[C@H]2C[C@@](C)(OC)[C@@H](O)[C@H](C)O2)[C@H](C)[C@@H](O[C@@H]2O[C@H](C)C[C@H](N(C)C)[C@H]2O)[C@](C)(O)C[C@@H](C)/C(=N\OCOCCOC)[C@H](C)[C@@H](O)[C@]1(C)O	> 30 µM
CC(/C=C1\SC(=S)N(CC(=O)O)C1=O)=C\c1ccccc1	26 µM
C=CC(N)CCC(=O)O (stereo not given)	> 10 µM
CCCN(CCc1cccs1)[C@H]1CCc2c(O)cccc2C1	> 30 µM
CNCC[C@H](Oc1cccc2ccccc12)c1cccs1	15 µM
CC(=O)S[C@@H]1CC2=CC(=O)CC[C@]2(C)[C@H]2CC[C@@]3(C)[C@@H](CC[C@@]34CCC(=O)O4)[C@H]12	> 30 µM
C#Cc1cccc(Nc2ncnc3cc(OCCOC)c(OCCOC)cc23)c1	> 30 µM
CNC(=O)Oc1ccc2c(c1)[C@]1(C)CCN(C)[C@@H]1N2C	> 30 µM
CC(C)(C)NCC(O)c1cc(Cl)c(N)c(Cl)c1 (stereo not given)	0.112 µM
CC1(C)C(/C=C/C=C/C=C/C=C2\N(CCCCS(=O)(=O)O)c3ccc4ccccc4c3C2(C)C)=[N+](CCCCS(=O)(=O)[O-])c2ccc3ccccc3c21 [INDOCYANINE GREEN ACID FORM]	9.4 µM
CC(=O)/N=c1/sc(S(N)(=O)=O)nn1C [METHAZOLAMIDE]	> 10 µM
CN(C)c1cc(CNCC(C)(C)C)c(O)c2c1C[C@H]1C[C@H]3[C@H](N(C)C)C(O)=C(C(N)=O)C(=O)[C@@]3(O)C(O)=C1C2=O	> 30 µM
